system: rodent lifetime carcinogenesis bioassay, tumor incidence TD50; test: carcinogenic potency in animals, long-term in vivo studies, CPDB compilation (AID 1745844); conditions: rat; strain F344/DuCrj; males; in drinking water; site: liver; lesion: hyperplastic nodule; dosed 108 weeks; study length 108 weeks
The source made the active and inactive calls. The rule behind the calls is not given here.
MEASUREMENT_TYPE: TD50

Ask: Provide TD50, system rodent lifetime carcinogenesis bioassay, tumor incidence TD50, entry `CCCCCCCC/C=C\CCCCCCCC(=O)O`
Reply: 29100 mg/kg/day (inactive)

* * *

system: rodent lifetime carcinogenesis bioassay, tumor incidence TD50; assay: carcinogenic potency in animals, long-term in vivo studies, CPDB compilation (AID 1745844); settings: rat; strain Fischer 344; females; in feed; site: thyroid gland + Zymbal's gland; lesion: adenocarcinoma, NOS + follicular-cell carcinoma + papillary cystadenocarcinoma, NOS + sebaceous adenocarcinoma; dosed 78 weeks; study length 107 weeks
MEASUREMENT_TYPE: TD50 (mg/kg/day)
Give the value, in units of mg/kg/day, as a plain number.

Ask: Please give the documented TD50 of `COc1ccc(N)cc1N`
Reply: 301

* * *

system: rodent lifetime carcinogenesis bioassay, tumor incidence TD50; experiment: carcinogenic potency in animals, long-term in vivo studies, CPDB compilation (AID 1745844); conditions: rat; strain ACI; females; by gavage; site: any site (literature study); lesion: several types; types named in the paper; dosed 103 weeks; study length 104 weeks
MEASUREMENT_TYPE: TD50 (mg/kg/day)
Value expressed in mg/kg/day; do not type the unit.

Ask: Answer with reported TD50 of `ClC=C(Cl)Cl`
Reply: 61700

* * *

tested on: rodent lifetime carcinogenesis bioassay, tumor incidence TD50; assay: carcinogenic potency in animals, long-term in vivo studies, CPDB compilation (AID 1745844); settings: rat; strain Fischer 344/Mai fBR; females; inhaled; site: brain; lesion: several types; types named in the paper; dosed 76 weeks; study length 78 weeks
MEASUREMENT_TYPE: TD50

Ask: Output reported TD50 of the compound `C1CO1` on rodent lifetime carcinogenesis bioassay, tumor incidence TD50.
Reply: 237 mg/kg/day

* * *

tested on: rodent lifetime carcinogenesis bioassay, tumor incidence TD50; assay: carcinogenic potency in animals, long-term in vivo studies, CPDB compilation (AID 1745844); conditions: mouse; strain B6C3F1; males; in feed; site: any site (literature study); lesion: several types; types named in the paper; dosed 53 weeks; study length 92 weeks
MEASUREMENT_TYPE: TD50 (mg/kg/day)
Give the number; mg/kg/day is assumed, so skip it.

Ask: Look up and state reported TD50 for `O=Nc1ccc(Nc2ccccc2)cc1`
Reply: 260

* * *

system: rodent lifetime carcinogenesis bioassay, tumor incidence TD50; assay: carcinogenic potency in animals, long-term in vivo studies, CPDB compilation (AID 1745844); conditions: mouse; strain B6C3F1; females; inhaled; site: lung; lesion: alveolar/bronchiolar carcinoma; dosed 103 weeks; study length 104 weeks
MEASUREMENT_TYPE: TD50

Ask: Give reported TD50 value for `c1ccc2ccccc2c1`
Reply: 4020 mg/kg/day

* * *

tested on: rodent lifetime carcinogenesis bioassay, tumor incidence TD50; test: carcinogenic potency in animals, long-term in vivo studies, CPDB compilation (AID 1745844); settings: rat; strain Wistar; females; in feed; site: kidney; lesion: one or several types; types not named; dosed 40 weeks; study length 89 weeks
MEASUREMENT_TYPE: TD50

Ask: Give the reported value of TD50 for this record: `O=[N+]([O-])c1ccc(-c2cnc3ccccn23)o1`
Reply: 116 mg/kg/day

* * *

tested on: rodent lifetime carcinogenesis bioassay, tumor incidence TD50; assay: carcinogenic potency in animals, long-term in vivo studies, CPDB compilation (AID 1745844); settings: rat; strain Wistar; females; in feed; site: liver; lesion: hepatocellular carcinoma; dosed 78 weeks; study length 78 weeks
MEASUREMENT_TYPE: TD50 (mg/kg/day)
Field format: number, assumed mg/kg/day, no unit text.

Ask: In one line, give reported TD50 of the entry O=P(O)(OCC(Br)CBr)OCC(Br)CBr (stereo unspecified) .
Reply: 20.1

* * *

test system: rodent lifetime carcinogenesis bioassay, tumor incidence TD50; test: carcinogenic potency in animals, long-term in vivo studies, CPDB compilation (AID 1745844); details: mouse; strain B6C3F1; males; i.p.; site: any site (literature study); lesion: several types; types named in the paper; dosed 52 weeks; study length 85 weeks
MEASUREMENT_TYPE: TD50 (mg/kg/day)
Output spec: scalar in mg/kg/day, unitless text.

Ask: Fill in TD50 for record `CNNCc1ccc(C(=O)NC(C)C)cc1`
Reply: 0.464

* * *

tested on: rodent lifetime carcinogenesis bioassay, tumor incidence TD50; experiment: carcinogenic potency in animals, long-term in vivo studies, CPDB compilation (AID 1745844); settings: rat; strain Fischer 344; females; in feed; site: liver; lesion: hepatocellular adenoma + hepatocellular carcinoma + neoplastic nodule; dosed 109 weeks; study length 109 weeks
MEASUREMENT_TYPE: TD50 (mg/kg/day)
Provide the reading as a plain figure in mg/kg/day.

Ask: Using the record for `NC(=S)NNC(N)=S` , state its measured TD50.
Reply: 131000

* * *

test system: rodent lifetime carcinogenesis bioassay, tumor incidence TD50; test: carcinogenic potency in animals, long-term in vivo studies, CPDB compilation (AID 1745844); conditions: rat; strain Fischer 344; females; in drinking water; site: any site (literature study); lesion: several types; types named in the paper; dosed 96 weeks; study length 97 weeks
MEASUREMENT_TYPE: TD50 (mg/kg/day)
Write down the numeric answer in mg/kg/day and omit the unit.

Ask: Give reported TD50 value for `COc1cc(-c2ccc(N=Nc3c(S(=O)(=O)O)cc4cc(S(=O)(=O)O)cc(N)c4c3O)c(OC)c2)ccc1N=Nc1c(S(=O)(=O)O)cc2cc(S(=O)(=O)O)cc(N)c2c1O`
Reply: 20.4

* * *

test system: rodent lifetime carcinogenesis bioassay, tumor incidence TD50; assay: carcinogenic potency in animals, long-term in vivo studies, CPDB compilation (AID 1745844); settings: rat; strain Fischer 344; males; in feed; site: liver; lesion: hepatocellular adenoma + hepatocellular carcinoma + neoplastic nodule; dosed 103 weeks; study length 104 weeks
Examples of compounds with documented TD50 follow.
The figure you give is taken to be in mg/kg/day; do not add the unit.

COMPOUND: O=S(=O)(O)c1ccc(N=Nc2c(O)ccc3cc(S(=O)(=O)O)ccc23)cc1
ENDPOINT_UNIT: mg/kg/day
NUMERIC_READOUT: 2520

COMPOUND: Brc1c(Br)c(Br)c(Oc2c(Br)c(Br)c(Br)c(Br)c2Br)c(Br)c1Br
ENDPOINT_UNIT: mg/kg/day
NUMERIC_READOUT: 2220

COMPOUND: CC[C@H]1OC(=O)[C@H](C)[C@@H](O[C@H]2C[C@@](C)(OC)[C@@H](O)[C@H](C)O2)[C@H](C)[C@@H](O[C@@H]2O[C@H](C)C[C@H](N(C)C)[C@H]2O)[C@](C)(O)C[C@@H](C)C(=O)[C@H](C)[C@@H](O)[C@]1(C)O
ENDPOINT_UNIT: mg/kg/day
NUMERIC_READOUT: 3950

Ask: Using the record for `OC[C@@H](O)[C@@H](O)[C@H](O)[C@H](O)CO` , state its measured TD50.
Reply: 18000

Ask: Tell me TD50 reported for O=P(OCC(Br)CBr)(OCC(Br)CBr)OCC(Br)CBr (configuration not stated)
Reply: 34.3

Ask: Tell us which TD50 value is on record for `O=S(=O)(O)c1ccc(N=Nc2cc(S(=O)(=O)O)c3ccccc3c2O)c2ccccc12`
Reply: 9850

Ask: // fetch TD50 given entry `O=S(=O)(O)c1cc(S(=O)(=O)O)c2c(N=Nc3ccccc3)c(O)ccc2c1`
Reply: 620

* * *

system: rodent lifetime carcinogenesis bioassay, tumor incidence TD50; test: carcinogenic potency in animals, long-term in vivo studies, CPDB compilation (AID 1745844); settings: monkey; strain Rhesus [Macaca mulatta]; both sexes; in feed; site: thyroid gland; lesion: papillary adenoma; dosed 1251 weeks; study length 1251 weeks
MEASUREMENT_TYPE: TD50 (mg/kg/day)
The figure you give is taken to be in mg/kg/day; do not add the unit.

Ask: Tell me its TD50 given `O=S(=O)(O)NC1CCCCC1` as the entry.
Reply: 182

* * *

tested on: rodent lifetime carcinogenesis bioassay, tumor incidence TD50; assay: carcinogenic potency in animals, long-term in vivo studies, CPDB compilation (AID 1745844); conditions: rat; strain Sprague-Dawley; females; in feed; site: kidney; lesion: urothelial carcinoma; dosed 112 weeks; study length 112 weeks
MEASUREMENT_TYPE: TD50
A bare number is not enough; add the unit after it.

Ask: Tell us which TD50 value is on record for `S=C(SN1CCOCC1)N1CCOCC1`
Reply: 571 mg/kg/day

* * *

tested on: rodent lifetime carcinogenesis bioassay, tumor incidence TD50; assay: carcinogenic potency in animals, long-term in vivo studies, CPDB compilation (AID 1745844); settings: mouse; strain Swiss albino; males; in drinking water; site: lung; lesion: adenocarcinoma; dosed 82 weeks; study length 82 weeks
MEASUREMENT_TYPE: TD50 (mg/kg/day)
# number only, unit mg/kg/day dropped from output

Ask: # lookup: rodent lifetime carcinogenesis bioassay, tumor incidence TD50 TD50, key = `C=CCNNCC=C`
Reply: 60
